Lab note: pIC50 readings collected with Alkaline phosphatase, placental type (Homo sapiens, UniProt P05187) for the following compounds.
Sequence (P05187 whole entry, looked up): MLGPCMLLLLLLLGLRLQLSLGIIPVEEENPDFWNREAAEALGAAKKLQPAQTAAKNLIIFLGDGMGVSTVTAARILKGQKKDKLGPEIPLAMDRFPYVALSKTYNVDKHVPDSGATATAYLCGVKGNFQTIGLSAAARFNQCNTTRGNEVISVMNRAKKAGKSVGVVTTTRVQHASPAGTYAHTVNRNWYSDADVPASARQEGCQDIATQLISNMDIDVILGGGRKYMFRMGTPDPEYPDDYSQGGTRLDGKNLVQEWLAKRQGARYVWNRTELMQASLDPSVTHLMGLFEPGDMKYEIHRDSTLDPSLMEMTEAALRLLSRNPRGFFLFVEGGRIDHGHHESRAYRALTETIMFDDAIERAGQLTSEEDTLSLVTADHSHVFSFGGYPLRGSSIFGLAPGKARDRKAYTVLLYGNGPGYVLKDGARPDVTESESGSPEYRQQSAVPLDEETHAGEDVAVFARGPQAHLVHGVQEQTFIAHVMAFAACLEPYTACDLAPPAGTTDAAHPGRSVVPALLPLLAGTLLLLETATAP
Give bare numbers, as −log10 of the molar value.

CCOC1=CC(=Cc2c(C)[nH]oc2=O)C=C(Br)C1=O	4.45

Incoming: // fetch Alkaline phosphatase, placental type (Homo sapiens, UniProt P05187) pIC50 for C=c1[nH]n(Cc2ccccc2)c(=O)c1=Cc1ccc(N(C)C)cc1
Outgoing: 4.42
